Molecular target: Bifunctional 3'-5' exonuclease/ATP-dependent helicase WRN [480-1251] (UniProt Q14191)
Construct: 480-1251
Sequence (Q14191 480-1251): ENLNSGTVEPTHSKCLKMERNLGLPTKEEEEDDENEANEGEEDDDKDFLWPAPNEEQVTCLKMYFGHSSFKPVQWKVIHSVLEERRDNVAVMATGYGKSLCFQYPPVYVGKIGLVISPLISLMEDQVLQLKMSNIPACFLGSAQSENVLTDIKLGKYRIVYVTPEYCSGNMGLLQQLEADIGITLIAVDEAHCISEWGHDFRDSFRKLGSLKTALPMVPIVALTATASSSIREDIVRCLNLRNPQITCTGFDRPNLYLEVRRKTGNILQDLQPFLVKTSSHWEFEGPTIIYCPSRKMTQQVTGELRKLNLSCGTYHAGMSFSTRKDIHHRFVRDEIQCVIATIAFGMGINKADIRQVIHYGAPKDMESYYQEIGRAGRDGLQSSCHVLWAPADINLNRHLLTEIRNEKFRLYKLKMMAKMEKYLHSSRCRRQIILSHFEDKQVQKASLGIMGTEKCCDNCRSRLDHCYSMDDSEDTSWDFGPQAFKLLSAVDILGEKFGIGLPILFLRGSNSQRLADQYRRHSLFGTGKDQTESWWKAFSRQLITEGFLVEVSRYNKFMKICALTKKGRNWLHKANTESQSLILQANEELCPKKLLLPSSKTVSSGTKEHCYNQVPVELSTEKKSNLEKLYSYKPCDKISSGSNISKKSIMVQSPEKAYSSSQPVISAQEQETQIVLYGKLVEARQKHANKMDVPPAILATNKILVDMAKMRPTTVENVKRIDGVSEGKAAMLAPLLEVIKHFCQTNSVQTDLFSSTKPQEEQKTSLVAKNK
Test: Biochemical Activity Assays
Protocol: The pure fractions were pooled and desalted/buffer exchanged into storage buffer using a HiTrap desalting column. […] First, WRN alone was pre-incubated with DMSO or compound of interest for 15 minutes. To initiate the reaction, ATP, dsDNA substrate, and ssDNA competitor (ssDNA_comp: […]) were added and incubated at room temperature for 20 minutes at which point DNA unwinding activity was monitored by measuring Cy3 fluorescence. […]
pIC50: −log10 of the molar value.
assay readout: pIC50

(A) CCc1c(N2CCN(C(=O)c3nsc(-c4ccncc4)c3O)CC2)c(=O)n2nc(-c3ccc4c(c3)COC4)nc2n1CC(=O)Nc1ccc(C(F)(F)F)cc1Cl
(B) CCc1c(N2CCN(C(=O)c3ncnc(C)c3O)CC2)c(=O)n2nc(C3=CCOCC3)nc2n1CC(=O)NC12CC(C3CC3)(C1)C2
(C) CCc1c(N2CCN(C(=O)c3nc4n(c(=O)c3O)CCOC4)CC2)c(=O)n2nc(N(C)C)nc2n1CC(=O)Nc1ccc(C(F)(F)F)c2c1CC2
Please list these molecules in decreasing order of pIC50. Output spec: labels arranged per the requested ranking. C, A, B

(P) CCc1c(N2CCN(C(=O)c3ncnc(C)c3O)CC2)c(=O)n2nc(-c3ccc4c(c3)C(F)(F)CC4)nc2n1CC(=O)Nc1ccc(C(F)(F)F)cc1Cl
(Q) CCc1c(N2CCN(C(=O)c3ncnc(C)c3O)CC2)c(=O)n2nc(-c3cc(F)c4c(c3)COC4(C)C)nc2n1CC(=O)Nc1ccc(C(F)(F)F)cc1Cl
Compare reported pIC50 values for P and Q . Which is lower? Lab note: record the label of whichever item you select. Q
(Q: 7.14, P: 7.41)

(a) CCc1c(N2CCN(C(=O)c3ncnc(C)c3O)CC2)c(=O)n2nc(-c3ccc4c(c3)COC4)nc2n1CC(=O)Nc1ccc(C=C(F)F)cc1Cl
(b) CCc1c(N2CCN(C(=O)c3ncnc(C)c3O)CC2)c(=O)n2nc(C3=CCOCC3)nc2n1CC(=O)Nc1ccc(SC(F)(F)F)cc1
Compare reported pIC50 values for a and b . Which is lower? Lab note: record the label of whichever item you select. b
